A collection of binders and their measured fold change of affinity
# Assayed target: Human CD137 ECD (human)
# Sequence (chain, as listed by the source limits assumed): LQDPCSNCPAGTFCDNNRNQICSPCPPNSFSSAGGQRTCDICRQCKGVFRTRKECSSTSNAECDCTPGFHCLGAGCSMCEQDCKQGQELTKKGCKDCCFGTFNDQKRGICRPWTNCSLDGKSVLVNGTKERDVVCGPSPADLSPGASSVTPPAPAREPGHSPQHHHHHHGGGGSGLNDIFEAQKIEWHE
# Assay comment: single mutant vs template dBBDu183H
Expressed in fold, but write only the number.

{"Binder": "H183/L072 VH F29A (antibody, name in Kabat numbering, V domains shown) VH: QVQLVESGGGLVQPGRSLRLSCAASGFTASNAWMHWVRQAPGKGLEWVAQIKDKGNAYAAYYAPSVKGRFTISRDDSKNSIYLQMNSLKTEDTAVYYCHYVHYASASTVLPAFGVDAWGQGTTVTVSS VL: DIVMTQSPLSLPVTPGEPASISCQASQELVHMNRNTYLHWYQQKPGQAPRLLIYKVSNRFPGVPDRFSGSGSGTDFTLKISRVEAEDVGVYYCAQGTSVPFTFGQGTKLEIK", "fold change of affinity / fold": 0}
{"Binder": "H183/L072 VH Y55S (antibody, name in Kabat numbering, V domains shown) VH: QVQLVESGGGLVQPGRSLRLSCAASGFTFSNAWMHWVRQAPGKGLEWVAQIKDKGNASAAYYAPSVKGRFTISRDDSKNSIYLQMNSLKTEDTAVYYCHYVHYASASTVLPAFGVDAWGQGTTVTVSS VL: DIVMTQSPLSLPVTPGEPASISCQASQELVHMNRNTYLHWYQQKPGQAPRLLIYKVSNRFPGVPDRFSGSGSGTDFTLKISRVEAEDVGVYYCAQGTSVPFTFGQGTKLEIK", "fold change of affinity / fold": 0}

Q: Entry under review: H183/L072 VH A102P (antibody, name in Kabat numbering, V domains shown) VH: QVQLVESGGGLVQPGRSLRLSCAASGFTFSNAWMHWVRQAPGKGLEWVAQIKDKGNAYAAYYAPSVKGRFTISRDDSKNSIYLQMNSLKTEDTAVYYCHYVHYASASTVLPAFGVDPWGQGTTVTVSS VL: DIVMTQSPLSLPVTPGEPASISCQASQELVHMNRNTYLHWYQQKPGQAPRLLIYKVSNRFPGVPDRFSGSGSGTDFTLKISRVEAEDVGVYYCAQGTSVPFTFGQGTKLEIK . Reported fold change of affinity?
Result: 0
